IC50 values for the molecules below.
Tested on: 931267-113-T-J1-PDC multicell spheroid viability
Experiment: Anticancer human tumor 931267-113-T-J1-PDC patient-derived colon adenocarcinoma cell line growth inhibition [PI3K]
Conditions: curve of first compound; second compound 0.00316 µM
measurement-type: IC50

>  <molecule>
CC(C)NCC(C(=O)N1CCN(c2ncnc3c2C(C)CC3O)CC1)c1ccc(Cl)cc1 (stereo not given) + COc1c(OCCCN2CCOCC2)ccc2c3n(c(=NC(=O)c4cnc(N)nc4)nc12)CCN3

>  <observed-value>
> 10000 nM

$$$$
>  <molecule>
C#Cc1c(F)ccc2cc(O)cc(-c3ncc4c(N5CC6CCC(C5)N6)nc(OCC56CCCN5CC(F)C6)nc4c3F)c12 (stereo not given) + COc1c(OCCCN2CCOCC2)ccc2c3n(c(=NC(=O)c4cnc(N)nc4)nc12)CCN3

>  <observed-value>
384 nM

$$$$
>  <molecule>
CC(=O)c1c(C)c2cnc(Nc3ccc(N4CCNCC4)cn3)nc2n(C2CCCC2)c1=O + COc1c(OCCCN2CCOCC2)ccc2c3n(c(=NC(=O)c4cnc(N)nc4)nc12)CCN3

>  <observed-value>
> 100 nM

$$$$
>  <molecule>
Cn1ncnc1[C@H]1c2n[nH]c(=O)c3cc(F)cc(c23)N[C@@H]1c1ccc(F)cc1 + COc1c(OCCCN2CCOCC2)ccc2c3n(c(=NC(=O)c4cnc(N)nc4)nc12)CCN3

>  <observed-value>
> 100 nM

$$$$
>  <molecule>
CC(Cn1ccc(-c2ccc(C#N)c(Cl)c2)n1)NC(=O)c1cc(C(C)O)[nH]n1 (stereo not given) + CC(Nc1ccc2c(c1)OCCn1cc(N3C(=O)OCC3C(F)F)nc1-2)C(N)=O

>  <observed-value>
> 10000 nM

$$$$

====

System: 931267-113-T-J1-PDC multicell spheroid viability
Assay: Anticancer human tumor 931267-113-T-J1-PDC cell line growth inhibition [PI3K];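 also: viability read 7 days after compound addition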
Details: curve of first compound; second compound 0.00316 µM

>  <compound>
CCN1CCN(Cc2ccc(Nc3ncc(F)c(-c4cc(F)c5nc(C)n(C(C)C)c5c4)n3)nc2)CC1 + CC(Nc1ccc2c(c1)OCCn1cc(N3C(=O)OCC3C(F)F)nc1-2)C(N)=O

>  <IC50>
> 1 µM

$$$$
>  <compound>
CC1(C)CCC(Nc2ncc(C(F)(F)F)c(-c3c[nH]c4c(P(C)(C)=O)c(C#N)ccc34)n2)CN1 (stereo unspecified) + COc1c(OCCCN2CCOCC2)ccc2c3n(c(=NC(=O)c4cnc(N)nc4)nc12)CCN3

>  <IC50>
> 10 µM

$$$$
>  <compound>
Cn1nccc1Nc1nccc(-c2ccn(C(CO)c3ccc(Cl)c(F)c3)c(=O)c2)n1 (stereo unspecified) + COc1c(OCCCN2CCOCC2)ccc2c3n(c(=NC(=O)c4cnc(N)nc4)nc12)CCN3

>  <IC50>
3.81 µM

$$$$
>  <compound>
CC1(C)CCC(Nc2ncc(C(F)(F)F)c(-c3c[nH]c4c(P(C)(C)=O)c(C#N)ccc34)n2)CN1 (stereo unspecified) + CC(Nc1ccc2c(c1)OCCn1cc(N3C(=O)OCC3C(F)F)nc1-2)C(N)=O

>  <IC50>
> 10 µM

$$$$
>  <compound>
C=CC(=O)N1CCN(c2nc(=O)n(-c3c(C)ccnc3C(C)C)c3nc(-c4c(O)cccc4F)c(F)cc23)C(C)C1 (stereo unspecified) + COc1c(OCCCN2CCOCC2)ccc2c3n(c(=NC(=O)c4cnc(N)nc4)nc12)CCN3

>  <IC50>
> 10 µM

$$$$
>  <compound>
CCCS(=O)(=O)Nc1ccc(F)c(C(=O)c2c[nH]c3ncc(-c4ccc(Cl)cc4)cc23)c1F + COc1c(OCCCN2CCOCC2)ccc2c3n(c(=NC(=O)c4cnc(N)nc4)nc12)CCN3

>  <IC50>
6.3 µM

$$$$
>  <compound>
CNC(=O)c1ccc(N2C(=S)N(c3ccc(C#N)c(C(F)(F)F)c3)C(=O)C2(C)C)cc1F + CC(Nc1ccc2c(c1)OCCn1cc(N3C(=O)OCC3C(F)F)nc1-2)C(N)=O

>  <IC50>
> 10 µM

$$$$
>  <compound>
C#Cc1c(F)ccc2cc(O)cc(-c3ncc4c(N5CC6CCC(C5)N6)nc(OCC56CCCN5CC(F)C6)nc4c3F)c12 (stereo unspecified) + CC(Nc1ccc2c(c1)OCCn1cc(N3C(=O)OCC3C(F)F)nc1-2)C(N)=O

>  <IC50>
0.531 µM

$$$$
>  <compound>
CNC(=O)c1ccc(N2C(=S)N(c3ccc(C#N)c(C(F)(F)F)c3)C(=O)C2(C)C)cc1F + COc1c(OCCCN2CCOCC2)ccc2c3n(c(=NC(=O)c4cnc(N)nc4)nc12)CCN3

>  <IC50>
> 10 µM

$$$$
>  <compound>
Cn1ncnc1[C@H]1c2n[nH]c(=O)c3cc(F)cc(c23)N[C@@H]1c1ccc(F)cc1 + CC(Nc1ccc2c(c1)OCCn1cc(N3C(=O)OCC3C(F)F)nc1-2)C(N)=O

>  <IC50>
> 0.1 µM

$$$$
>  <compound>
Cn1nccc1Nc1nccc(-c2ccn(C(CO)c3ccc(Cl)c(F)c3)c(=O)c2)n1 (stereo unspecified) + CC(Nc1ccc2c(c1)OCCn1cc(N3C(=O)OCC3C(F)F)nc1-2)C(N)=O

>  <IC50>
8.42 µM

$$$$

====

System: 931267-113-T-J1-PDC multicell spheroid viability
Experiment: Anticancer human tumor 931267-113-T-J1-PDC cell line growth inhibition [PI3K];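 also: viability read 7 days after compound addition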
Details: second compound 3.16 µM; first compound 0.000316 µM; stronger effect = lower value
Please assign no (0) whenever viability, T/C is at or above 90%, and yes (1) whenever it is below.

>  <compound>
CC(C)n1nc(-c2ccc3oc(N)nc3c2)c2c(N)ncnc21 + Cc1nc(NC(=O)N2CCCC2C(N)=O)sc1-c1ccnc(C(C)(C)C(F)(F)F)c1

>  <label-class>
yes (1)

$$$$
>  <compound>
Cn1ncnc1[C@H]1c2n[nH]c(=O)c3cc(F)cc(c23)N[C@@H]1c1ccc(F)cc1 + CC(Nc1ncnc2nc[nH]c12)c1cc2cccc(Cl)c2c(=O)n1-c1ccccc1

>  <label-class>
no (0)

$$$$
>  <compound>
CC(C)n1nc(-c2ccc3oc(N)nc3c2)c2c(N)ncnc21 + CC(Nc1ncnc2nc[nH]c12)c1cc2cccc(Cl)c2c(=O)n1-c1ccccc1

>  <label-class>
no (0)

$$$$
>  <compound>
Cn1ncnc1[C@H]1c2n[nH]c(=O)c3cc(F)cc(c23)N[C@@H]1c1ccc(F)cc1 + Cc1nc(NC(=O)N2CCCC2C(N)=O)sc1-c1ccnc(C(C)(C)C(F)(F)F)c1

>  <label-class>
yes (1)

$$$$
>  <compound>
CC(=O)c1c(C)c2cnc(Nc3ccc(N4CCNCC4)cn3)nc2n(C2CCCC2)c1=O + CC(Nc1ncnc2nc[nH]c12)c1cc2cccc(Cl)c2c(=O)n1-c1ccccc1

>  <label-class>
no (0)

$$$$

====

Test system: 931267-113-T-J1-PDC multicell spheroid viability
Assay: Anticancer human tumor 931267-113-T-J1-PDC cell line growth inhibition [PI3K];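 also: viability read 7 days after compound addition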
Conditions: second compound 0.00316 µM; first compound 0.316 µM; stronger effect = lower value
viability, T/C values for the compounds below.
measurement-type: viability, T/C (%)

>  <compound>
Cn1ncc(Cl)c1-c1cc(C(=O)NC(CN)Cc2cccc(F)c2)sc1Cl (stereo unspecified) + CC(Nc1ccc2c(c1)OCCn1cc(N3C(=O)OCC3C(F)F)nc1-2)C(N)=O

>  <observed-value>
85.5

$$$$
>  <compound>
CC(Cn1ccc(-c2ccc(C#N)c(Cl)c2)n1)NC(=O)c1cc(C(C)O)[nH]n1 (stereo unspecified) + CC(Nc1ccc2c(c1)OCCn1cc(N3C(=O)OCC3C(F)F)nc1-2)C(N)=O

>  <observed-value>
98.5

$$$$
>  <compound>
Cn1nccc1Nc1nccc(-c2ccn(C(CO)c3ccc(Cl)c(F)c3)c(=O)c2)n1 (stereo unspecified) + CC(Nc1ccc2c(c1)OCCn1cc(N3C(=O)OCC3C(F)F)nc1-2)C(N)=O

>  <observed-value>
88.6

$$$$
>  <compound>
CCN1CCN(Cc2ccc(Nc3ncc(F)c(-c4cc(F)c5nc(C)n(C(C)C)c5c4)n3)nc2)CC1 + COc1c(OCCCN2CCOCC2)ccc2c3n(c(=NC(=O)c4cnc(N)nc4)nc12)CCN3

>  <observed-value>
94.2

$$$$
>  <compound>
C=CC(=O)N1CCN(c2nc(=O)n(-c3c(C)ccnc3C(C)C)c3nc(-c4c(O)cccc4F)c(F)cc23)C(C)C1 (stereo unspecified) + CC(Nc1ccc2c(c1)OCCn1cc(N3C(=O)OCC3C(F)F)nc1-2)C(N)=O

>  <observed-value>
100

$$$$
>  <compound>
CC1(C)CCC(Nc2ncc(C(F)(F)F)c(-c3c[nH]c4c(P(C)(C)=O)c(C#N)ccc34)n2)CN1 (stereo unspecified) + COc1c(OCCCN2CCOCC2)ccc2c3n(c(=NC(=O)c4cnc(N)nc4)nc12)CCN3

>  <observed-value>
91.6

$$$$
>  <compound>
CC1(C)CCC(CN2CCN(c3ccc(C(=O)NS(=O)(=O)c4ccc(NCC5CCOCC5)c([N+](=O)[O-])c4)c(Oc4cnc5[nH]ccc5c4)c3)CC2)=C(c2ccc(Cl)cc2)C1 + COc1c(OCCCN2CCOCC2)ccc2c3n(c(=NC(=O)c4cnc(N)nc4)nc12)CCN3

>  <observed-value>
99

$$$$
>  <compound>
C#Cc1c(F)ccc2cc(O)cc(-c3ncc4c(N5CC6CCC(C5)N6)nc(OCC56CCCN5CC(F)C6)nc4c3F)c12 (stereo unspecified) + COc1c(OCCCN2CCOCC2)ccc2c3n(c(=NC(=O)c4cnc(N)nc4)nc12)CCN3

>  <observed-value>
51.9

$$$$
>  <compound>
CC(C)NCC(C(=O)N1CCN(c2ncnc3c2C(C)CC3O)CC1)c1ccc(Cl)cc1 (stereo unspecified) + CC(Nc1ccc2c(c1)OCCn1cc(N3C(=O)OCC3C(F)F)nc1-2)C(N)=O

>  <observed-value>
92.9

$$$$
>  <compound>
CC1(C)CCC(Nc2ncc(C(F)(F)F)c(-c3c[nH]c4c(P(C)(C)=O)c(C#N)ccc34)n2)CN1 (stereo unspecified) + CC(Nc1ccc2c(c1)OCCn1cc(N3C(=O)OCC3C(F)F)nc1-2)C(N)=O

>  <observed-value>
85.2

$$$$
>  <compound>
CNC(=O)c1ccc(N2C(=S)N(c3ccc(C#N)c(C(F)(F)F)c3)C(=O)C2(C)C)cc1F + CC(Nc1ccc2c(c1)OCCn1cc(N3C(=O)OCC3C(F)F)nc1-2)C(N)=O

>  <observed-value>
85.9

$$$$
